# reported EC50; entries follow
target.of.assay: recombinant DYRK1A kinase (Homo sapiens (Human))
assay.remarks: DYRK1A kinase assay (Ser/Thr 18 peptide Z-lyte FRET assay)
details: DYRK1A kinase activity; 15 μM ATP, 1 h room temperature; method text calls the value IC50

smiles.record	EC50 / nM
COc1nc(N[C@H]2CC[C@@](C)(O)CC2)nc2[nH]cc(-c3ccc4nccnc4c3)c12	2.2
FC1(F)CCC(Nc2ncc3c(-c4ccn5nccc5c4)c[nH]c3n2)CC1	5.7
COc1nc(NC2CCC3(CC2)COC3)nc2[nH]cc(-c3ccc4nccnc4c3)c12	1.6
COc1nc(NC2CCOCC2)nc2[nH]cc(-c3ccn4nccc4c3)c12	2.2
[2H]C([2H])([2H])O[C@H]1CC[C@@H](Nc2ncc3c(-c4ccn5nccc5c4)c[nH]c3n2)CC1	2.6
CN1CCC(Nc2ncc3c(-c4ccn5nccc5c4)c[nH]c3n2)CC1	28.5
CCOc1nc(N[C@H](C)C(F)(F)F)nc2[nH]cc(-c3ccn4nccc4c3)c12	12.9
C[C@@H](Nc1ncc2c(-c3cnc4nccn4c3)c[nH]c2n1)C1CC1	7.6

====

target.of.assay: recombinant DYRK1A kinase (Homo sapiens (Human), UniProt Q13627)
assay.remarks: DYRK1A kinase assay (Ser/Thr 18 peptide Z-lyte FRET assay)
details: DYRK1A kinase activity; 15 μM ATP, 1 h room temperature; method text calls the value IC50
pEC50: −log10 of the molar value.

compound	pEC50
COc1ccc(-c2c[nH]c3ncnc(N[C@H]4CC[C@H](N5CCOCC5)CC4)c23)cn1	6.11
CNc1ncc2c(-c3ccc4ncccc4c3)c[nH]c2n1	8.54
COC[C@@H](C)Nc1nc(OC)c2c(-c3ccn4nccc4c3)c[nH]c2n1	7.10
COc1nc(NC2CCC3(CC2)COC3)nc2[nH]cc(-c3ccn4nccc4c3)c12	8.80
COc1nc(N[C@H]2CC[C@@H](OCC(F)F)CC2)nc2[nH]cc(-c3cc(F)c4nccn4c3)c12	8.44
COC[C@@H](C)Nc1nc(OC)c2c(-c3cc(F)c4nccn4c3)c[nH]c2n1	7.16
CN1CCN(c2cc(Nc3ncc4c(-c5ccc6ncccc6c5)c[nH]c4n3)ccn2)CC1	9.30
COc1nc(N[C@H](C)C(F)(F)F)nc2[nH]cc(-c3ccc4nccn4c3)c12	8.80
COc1nc(N[C@H](C)C(F)(F)F)nc2[nH]cc(-c3ccc4nnn(C)c4c3)c12	8.68
COc1nc(NC2CCC(F)(F)CC2)nc2[nH]cc(-c3cnc4nccn4c3)c12	8.00
CO[C@H]1C[C@@H](Nc2ncc3c(-c4ccc5nccnc5c4)c[nH]c3n2)C1	8.24
Cn1nnc2ccc(-c3c[nH]c4nc(N[C@H]5CC[C@@](C)(O)CC5)ncc34)cc21 [Compound 3643]	9.15
COc1ncc(-c2c[nH]c3nc(NCC(C)(C)F)ncc23)cn1	6.11
Cc1cnc2ccc(-c3c[nH]c4nc(NC5CCN(C)CC5)ncc34)nn12	8.01
CC(C)(F)CNc1ncc2c(-c3ccc4nccnc4c3)c[nH]c2n1	8.31
COc1nc(NCC(C)(C)F)nc2[nH]cc(-c3ccc4nc(C)n(CC(F)F)c4n3)c12	6.59
CC(C)(C)CNc1ncc2c(-c3ccc4ncnn4c3)c[nH]c2n1	7.32

====

target.of.assay: recombinant DYRK1A kinase (Homo sapiens (Human))
assay.remarks: DYRK1A kinase assay (Ser/Thr 18 peptide Z-lyte FRET assay)
details: DYRK1A kinase activity; 15 μM ATP, 1 h room temperature; method text calls the value IC50
Procedure: Representative compounds were screened using the assay procedure for DYRK1A kinase activity as described below. Each compound was dissolved in DMSO as a 10 mM stock and used to prepare compound source plates. […] The Emission ratio (Em) was calculated as a ratio of the coumarin (C) emission signal (at 445 nm)/Fluorescein (F) emission signal (at 520 nm). The percent phosphorylation was then calculated using the following formula: [1−((Em ratio×F100%)−C100%)/((C0%−C100%)+(Em ratio×(F100%−F0%)))]. […]
pEC50: −log10 of the molar value.

smiles.record	pEC50
COc1nc(NC2CCC3(CC2)OCCO3)nc2[nH]cc(-c3ccn4nccc4c3)c12	8.80
CO[C@H]1C[C@@H](Nc2ncc3c(-c4ccc5ncccc5c4)c[nH]c3n2)C1	8.10
COc1nc(N[C@H]2CC[C@@](C)(O)CC2)nc2[nH]cc(-c3cc(F)c4nccn4c3)c12	8.64
Cc1nc2ccc(-c3c[nH]c4nc(CC(C)C)ncc34)nc2n1C(C)C	8.29

====

target.of.assay: recombinant DYRK1A kinase (Homo sapiens (Human))
assay.remarks: DYRK1A kinase assay (Ser/Thr 18 peptide Z-lyte FRET assay)
details: DYRK1A kinase activity; 15 μM ATP, 1 h room temperature; method text calls the value IC50
pEC50: −log10 of the molar value.
# pEC50 per record follows
measure.name: pEC50

smiles.record	reported.measurement
CC(C)(F)CNc1ncc2c(-c3ccn4ncc(F)c4c3)c[nH]c2n1	7.16
C[C@@H](Nc1ncc2c(-c3ccc4ncc(F)n4c3)c[nH]c2n1)C(F)(F)F	8.26
O=C(NCC1CC(F)(F)C1)c1cnn2ccc(-c3c[nH]c4nc(C5CC5)ncc34)cc12	8.22
Cn1nnc2ccc(-c3c[nH]c4nc(NC5CCOCC5)ncc34)cc21	7.63
CCO[C@H]1CC[C@@H](Nc2ncc3c(-c4ccc5nnn(C)c5c4)c[nH]c3n2)CC1	8.00
COc1nc(NC2CCN(C)CC2)nc2[nH]cc(-c3ccn4nccc4c3)c12	8.13
CC(C)(F)CNc1ncc2c(-c3ccc4nccn4n3)c[nH]c2n1	8.47
CO[C@H]1CC[C@@H](Nc2ncc3c(-c4ccn5nccc5n4)c[nH]c3n2)CC1	8.22
FC1(F)CC(Nc2ncc3c(-c4ccc5ncnn5c4)c[nH]c3n2)C1	8.19
COc1nc(N[C@H]2CC[C@H](OC(F)F)CC2)nc2[nH]cc(-c3ccn4nccc4c3)c12	6.34
C[C@H](Nc1ncc2c(-c3ccn4nccc4n3)c[nH]c2n1)C(F)(F)F	6.99
COc1nc(N[C@H]2CC[C@](C)(O)CC2)nc2[nH]cc(-c3ccc4nccn4c3)c12	8.96
C[C@@H](Nc1ncc2c(-c3ccc4nnn(C)c4c3)c[nH]c2n1)C(F)(F)F	8.32
C[C@@H](Nc1ncc2c(-c3ccc4ncnn4c3)c[nH]c2n1)C1CC1	7.66
CC(C)(F)CNc1ncc2c(-c3ccc4ncc(C(F)F)n4n3)c[nH]c2n1	8.59
Cn1cc(-c2ncnc3[nH]cc(-c4ccc5ncccc5c4)c23)cn1	7.74
CO[C@H]1CC[C@@H](Nc2ncc3c(-c4ccc5nccn5n4)c[nH]c3n2)CC1	8.49
Cc1nnc2ccc(-c3c[nH]c4nc(NCC(C)(C)F)ncc34)cn12	7.08
Cn1cc(-c2c[nH]c3nc(NCC(C)(C)F)ncc23)ccc1=O	7.66
Cc1nc2c(F)cc(-c3c[nH]c4nc(C5CC5)ncc34)cc2n1C1CCN(C)CC1	7.91
COc1nc(N[C@H](C)C(F)(F)F)nc2[nH]cc(-c3cc(F)c4nccn4c3)c12	7.98
FC1(CNc2ncc3c(-c4ccn5nccc5n4)c[nH]c3n2)CCC1	7.87
COC[C@@H](C)Nc1nc(OC)c2c(-c3ccc4nnn(CC(F)F)c4c3)c[nH]c2n1	7.63
COc1nc(N[C@@H]2[C@@H]3COC[C@@H]32)nc2[nH]cc(-c3ccn4nccc4c3)c12	8.82
COc1nc(N[C@H]2CC[C@@H](OCC(F)F)CC2)nc2[nH]cc(-c3ccc4nccn4c3)c12	8.68
CC(C)(F)CNc1ncc2c(-c3ccc4ncc(C(F)F)n4c3)c[nH]c2n1	8.17
c1nc2ccc(-c3c[nH]c4nc(C5CC5)ncc34)cn2n1	6.70
CN1CCN(C(=O)c2cnn3ccc(-c4c[nH]c5ncnc(NCC6CC6)c45)cc23)CC1	6.31
CN1CCC(Nc2ncc3c(-c4cc(F)c5nccn5c4)c[nH]c3n2)CC1	8.26
CO[C@H]1CC[C@H](NC(=O)c2cnn3ccc(-c4c[nH]c5nc(C6CC6)ncc45)cc23)CC1	8.17
Cc1cn2nc(-c3c[nH]c4nc(NC(C)C)ncc34)ccc2n1	7.59
CCO[C@H]1CC[C@@H](Nc2ncc3c(-c4cc(F)c5nccn5c4)c[nH]c3n2)CC1	8.62
COc1ccc(-c2c[nH]c3nc(NC4CCN(S(C)(=O)=O)CC4)ncc23)c(OC)c1	7.36

====

# key: entry, value: log10 EC50
target.of.assay: recombinant DYRK1A kinase (Homo sapiens (Human), UniProt Q13627)
assay.remarks: DYRK1A kinase assay (Ser/Thr 18 peptide Z-lyte FRET assay)
details: DYRK1A kinase activity; 15 μM ATP, 1 h room temperature; method text calls the value IC50
measure.name: log10 EC50 (log10 of the value in µM)

smiles.record	measure.name	reported.measurement
CC(C)(C)CNc1ncc2c(-c3ccc4nccn4c3)c[nH]c2n1	log10 EC50	-1.44
FC(F)(F)C1(CNc2ncc3c(-c4ccn5nccc5n4)c[nH]c3n2)CC1	log10 EC50	-1.70
Cc1nc2c(F)cc(-c3c[nH]c4nc(NCC5CN(C)C5)ncc34)cc2n1C	log10 EC50	0.67
CC(C)(F)CNc1ncc2c(-c3cnc4nccn4c3)c[nH]c2n1	log10 EC50	-2.82
COc1nc(N[C@H]2CC[C@@H](OC)CC2)nc2[nH]cc(-c3ccc4ncnn4c3)c12	log10 EC50	-2.92
